- TESTED_TARGET: METTL3-14 (Homo sapiens)
- Sequence (Q86U44 whole entry): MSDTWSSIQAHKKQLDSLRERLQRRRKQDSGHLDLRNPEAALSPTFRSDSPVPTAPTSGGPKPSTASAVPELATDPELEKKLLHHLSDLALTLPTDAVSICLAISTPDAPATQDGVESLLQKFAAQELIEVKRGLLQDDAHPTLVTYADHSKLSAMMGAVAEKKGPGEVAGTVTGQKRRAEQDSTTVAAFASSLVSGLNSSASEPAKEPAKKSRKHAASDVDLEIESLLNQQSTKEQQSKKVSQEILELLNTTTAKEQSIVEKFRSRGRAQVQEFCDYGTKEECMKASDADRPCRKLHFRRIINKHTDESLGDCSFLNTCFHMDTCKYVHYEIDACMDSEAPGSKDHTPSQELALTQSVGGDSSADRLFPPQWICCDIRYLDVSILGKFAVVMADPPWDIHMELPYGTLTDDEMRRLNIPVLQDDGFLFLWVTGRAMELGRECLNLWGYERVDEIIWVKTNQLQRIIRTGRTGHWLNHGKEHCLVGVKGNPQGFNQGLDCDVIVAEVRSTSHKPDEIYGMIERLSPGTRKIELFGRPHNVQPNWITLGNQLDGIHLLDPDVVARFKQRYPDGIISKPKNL
- Sequence (Q9HCE5 whole entry, further chain): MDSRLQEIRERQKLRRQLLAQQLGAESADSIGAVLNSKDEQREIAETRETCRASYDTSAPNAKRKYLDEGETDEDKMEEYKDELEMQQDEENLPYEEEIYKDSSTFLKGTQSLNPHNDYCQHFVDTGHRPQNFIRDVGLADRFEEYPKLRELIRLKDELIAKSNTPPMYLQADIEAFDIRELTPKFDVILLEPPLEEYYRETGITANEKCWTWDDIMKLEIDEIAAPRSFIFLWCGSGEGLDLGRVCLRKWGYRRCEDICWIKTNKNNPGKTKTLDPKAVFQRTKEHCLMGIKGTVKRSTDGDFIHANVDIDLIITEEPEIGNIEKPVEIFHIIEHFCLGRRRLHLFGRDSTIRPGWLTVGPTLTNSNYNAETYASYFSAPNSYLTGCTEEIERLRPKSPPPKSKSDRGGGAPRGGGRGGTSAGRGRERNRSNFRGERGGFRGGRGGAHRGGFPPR
- MEASUREMENT_PROTOCOL: biochemical
- Parameters: with the full-length complex, the recombinant complex construct pFastBacDual-StrepII-GFP-TEV-METTL3-His-TEV-METTL14 was expressed; StrepII (N); GFP (N); TEV site (N); made in house; host or cells: baculovirus/Sf9 insect cells
- TEST_CONTEXT: inhibition of catalytic activity of METTL3-14, binary FRET assay
MEASURE_NAME: IC50 (nM)
// return numeric value only (unit: nM, not printed)

Some molecules with recorded IC50:
# MOLECULE, MEASUREMENT_UNITS, NUMERIC_RESULT
rows = [
    ("CC1(C)CCN(Cc2ccc(N3CC(=O)NC4(CCN(c5cc(NCCCNC(=O)CCCCCCCCNc6cccc7c6CN(C6CCC(=O)NC6=O)C7=O)ncn5)CC4)C3)cc2)CC1 (centres unmarked) [Compound 5]", "nM", 260),
    ("CC1(C)CCN(Cc2cc(F)c(N3CC(=O)NC4(CCN(c5cc(NCc6cccc(CNC(=O)CCCCCCCCCCNc7cccc8c7CN(C7CCC(=O)NC7=O)C8=O)c6)ncn5)CC4)C3)cc2F)CC1 (centres unmarked) [Compound 17]", "nM", 160),
    ("CC1(C)CCN(Cc2cc(F)c(N3CC(=O)NC4(CCN(c5cc(NCCCNC(=O)CCCCCCCCNc6cccc7c6CN(C6CCC(=O)NC6=O)C7=O)ncn5)CC4)C3)cc2F)CC1 (centres unmarked) [Compound 10]", "nM", 66),
]

So, CC1(C)CCN(Cc2ccc(N3CC(=O)NC4(CCN(c5cc(NCCCNC(=O)CCOCCOCCNc6cccc7c6C(=O)N(C6CCC(=O)NC6=O)C7=O)ncn5)CC4)C3)cc2)CC1 (centres unmarked) [Compound 1] ? Its IC50 was 2470

So, CC1(C)CCN(Cc2ccc(N3CC(=O)NC4(CCN(c5cc(NCCCNC(=O)CCCCCCCCCCn6cc(CNc7cccc8c7C(=O)N(C7CCC(=O)NC7=O)C8=O)nn6)ncn5)CC4)C3)cc2)CC1 (centres unmarked) [Compound 8] ? Its IC50 was 480
